From: PubChem BioAssay AID1996

conditions: buffer; pH 7.4; 200.0 µM
Provide the reported log10(solubility kinetic) of each item.
Log10 applied to solubility kinetic; unit prior to transform: µg/mL.

Task: Entry Cc1cccc2nc(CSc3ncccc3C(=O)O)cn12 : reported log10(solubility kinetic) = ?
Result: 1.59

Task: Requested field: log10(solubility kinetic). Item: COc1ccc(C(O)Cn2cc([N+](=O)[O-])nc2C)cc1 (stereo not given)
Result: 1.59

Task: What does the data say about its log10(solubility kinetic)? Entry: CC(=O)c1ccccc1NS(=O)(=O)c1cccc2nonc12
Result: -0.05

Task: Form field: reported log10(solubility kinetic) of Nc1ccc(CCc2ccc(N)cc2)cc1
Result: 1.34

Task: GET /values?readout=log10(solubility kinetic)&item= CN(C(=O)CSc1nc2ccccc2c(=O)n1-c1ccccc1F)C1CCS(=O)(=O)C1 (stereo not given)
Result: 1.21

Task: Item under review: Cc1cc(NC(=O)c2ccc(NC(=O)C3CC3)cc2)no1 . Reported log10(solubility kinetic)?
Result: 0.94

Task: What value of log10(solubility kinetic) has been recorded for this entry: O=C(CN1C(=O)NC(c2ccccc2)(c2ccccc2)C1=O)Nc1ccc(N2CCOCC2)cc1
Result: 0.41

Task: What value of measured log10(solubility kinetic) is listed for COc1cccc(CN(C)C(=S)Nc2ccc(C)c(C)c2)c1 ?
Result: 1.40

Task: What log10(solubility kinetic) value was documented for this compound, C(=C\c1nc(-c2cccnc2)no1)/c1ccccc1 ?
Result: 0.53

Task: Quick check: log10(solubility kinetic) of CN(Cc1cccc(F)c1)C(=O)c1cc(=O)[nH]c2ccccc12 ?
Result: 1.65

Task: Need log10(solubility kinetic) of O=[N+]([O-])c1cc(C(F)(F)F)ccc1NC1CCN(Cc2ccccc2)CC1 , thanks.
Result: 0.41

Task: Record request: log10(solubility kinetic) value, item CCOC(=O)c1nccnc1C(=O)Nc1cccc(C(F)(F)F)c1
Result: 1.68

Task: Requested read-out: log10(solubility kinetic). Entry: CC(NC(=O)CNC(=O)c1cccs1)c1cccc(C(F)(F)F)c1 (stereo not given)
Result: 1.10
